test.description: NCI Yeast Anticancer Drug Screen. Data for the mec2-1 strain (AID 157)
stated.conditions: S. cerevisiae mec2-1 strain, at 50.0 µM, active compounds read high
The panel holds about 79,000 compounds, 15% with a hit somewhere; the sample as a whole holds those more often.
I'd appreciate it if you could supply growth inhibition values for the items below.
One number for each entry, in %.

COC(=O)C1(Br)c2ccccc2-c2ccccc21 = 17.7
CCCOC(=O)CCCC1=NC2=CC=CC3=NC(C)=NC(=N1)N23 = -3.4
OC1CCCCC1C1CCCCC1 (stereo not drawn) = 4.45
Clc1ncc(-c2ccccc2)nc1Cl = 11.4
C[Si](C)(C)O[Si](C)(C)CCl = -12.4

Below is a list of compounds. For each, state its recorded growth inhibition.
1. ClC(Cc1ccccc1)(c1ccccc1)c1ccccc1
2. O=C(CSSCC(=O)Nc1ccccc1O)Nc1ccccc1O
3. CC/C(C)=N/NS(C)(=O)=O

result:
13.5
-8.15
-7.55

Below is a list of compounds. For each, state its recorded growth inhibition.
1. CC(CN1c2ccccc2Sc2ccccc21)N(C)CCO (stereo not drawn)
2. O=C1C2=C(Nc3cc([N+](=O)[O-])ccc3N2)OC1c1ccc2c(c1)OCO2 (stereo not drawn)
3. Cc1cccc(C(N)=O)c1
4. COc1cc(OC)c(C(=O)/C=C/c2ccncc2)cc1C(=O)O

result:
1. -24.7
2. -16.9
3. 6.7
4. -14.6

query: Requested field: growth inhibition. Item: `CN(C)c1ccc(C2(c3ccc(N(C)C)cc3)NNC(=O)c3cc(N(C)C)ccc32)cc1`
result: 5

----------
I'd appreciate it if you could supply growth inhibition values for the items below.
test.description: NCI Yeast Anticancer Drug Screen. Data for the cln2 rad14 strain (AID 165);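 also: 0% = growth equal to vehicle treated cultures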
stated.conditions: S. cerevisiae cln2 rad14 strain, at 50.0 µM, active compounds read high
Compounds without any hit were thinned out: in the full panel of roughly 79,000, 15% have a hit.
One number for each entry, in %.

COC(=O)/C(C#N)=C/c1ccc2c(c1)OCO2 = 11.2
CC(=O)OC1CCC2(C)C(=CCC3C2CCC2(C)C3CCC23OCCS3)C1 (configuration not stated) = 9.1

Below is a list of compounds. For each, state its recorded growth inhibition.
1. c1ccc2c(c1)ccc1cc3c(ccc4ccccc43)cc12
2. CN1c2ccc(C3N(C(=O)C(F)(F)F)C=CN3C(=O)C(F)(F)F)cc2Sc2cc(C3N(C(=O)C(F)(F)F)C=CN3C(=O)C(F)(F)F)ccc21
3. O/C=C(\Cl)CCl
4. C[N+](=C\c1ccccc1O)/N=C\c1ccccc1O
5. Cc1ccc(SCCSc2ccc(C)cc2)cc1

result:
[13.2, -6.9, 11.9, -35.6, -5.7]

Below is a list of compounds. For each, state its recorded growth inhibition.
1. CCCCNc1ccccc1
2. CCOC(=O)C(C(=O)OCC)C(C(=O)OCC)(C(=O)OCC)C(C(=O)OCC)C(=O)OCC

result:
-21
-3.55

Below is a list of compounds. For each, state its recorded growth inhibition.
1. Nc1nc(Cl)cc(Oc2ccc(Cl)cc2)n1
2. CSc1ncnc2c1ncn2CCC(=O)O
3. Nc1nnc(-c2ccc(-c3nnc(N)o3)cc2)o1

result:
1. 2.5
2. 8.8
3. -31.1

----------
I'd appreciate it if you could supply growth inhibition values for the items below.
test.description: NCI Yeast Anticancer Drug Screen. Data for the mec2-1 strain (AID 157)
stated.conditions: S. cerevisiae mec2-1 strain, at 50.0 µM, active compounds read high
The panel holds about 79,000 compounds, 15% with a hit somewhere; the sample as a whole holds those more often.
One number for each entry, in %.

CC(C)C(C(=O)O)N1C(=O)c2ccccc2C1=O (stereo unspecified) = -1.5
O=c1cc2n(c(=O)n1-c1ccccc1)CCCC2 = 6.6
COc1ccc(/C(N)=N/OCc2ccc(C#N)cc2)cc1 = -21.4
Cc1ccc2sc3cc(=O)cc(C)c-3nc2c1 = 0.7
COC(=O)C1(C)CCCC2(C)C3=CC(O)C4(C(C)C)OC4C3(O)CCC12 (stereo unspecified) = -41.6
O=C1C=C(NCCc2ccccc2)c2ccccc2C1=O = -8.6
CCCCC(O)C(=O)NCCC(=O)c1ccccc1 (stereo unspecified) = 5.95
CC1=CCC(=O)[C@]2(C)C(CC(=O)O)[C@]3(C)C4=C(C)C(c5ccoc5)C[C@@H]4O[C@@H]3[C@H](O)[C@@H]12 (stereo partly specified) = -9.6
CCOc1c(OC)cc(-c2nc3n(n2)C(=O)C(CC)S3)cc1OC (stereo unspecified) = -17.4
C(#CCOc1ccc2c(c1)OCO2)COc1ccc2c(c1)OCO2 = 0.8

Next item in the queue.
query: Requested field: growth inhibition. Item: `CC1=CC(C)(C)N=C2SC(c3ccc(N)cc3)=NN12`
result: 1.7

----------
test.description: NCI Yeast Anticancer Drug Screen. Data for the sgs1 mgt1 strain (AID 161);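 also: 0% = growth of cultures given vehicle only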
stated.conditions: S. cerevisiae sgs1 mgt1 strain, at 50.0 µM, active compounds read high
Procedure: Growth inhibition of yeast strains with defined genetic alterations is measured as a screen for potential anti-cancer activity. Selected strains with alterations in DNA damage repair or cell cycle control were exposed to compounds and growth inhibition was measured relative to vehicle treated controls. The strain used in this assay is sgs1 mgt1
This is part of a sample that, as a whole, favours compounds with a hit. Of some 79,000 tested, about 15% had one in any assay.
quantity.measured: growth inhibition (%)
One number for each entry, in %.

Cc1ccncc1C#N = -0.9
COc1cc2c(c(OC)c1OC)-c1ccc(SCC3CCC4CC3C4(C)C)c(=O)cc1C(NC(C)=O)CC2 (stereo unspecified) = 98
O=C1CCCC1C(=O)c1ccccc1.O=C1CCCC1C(=O)c1ccccc1.[Cu] (stereo unspecified) = 88.5

Below is a list of compounds. For each, state its recorded growth inhibition.
1. CCOC(=O)c1[nH]c(-c2ccc(OC)cc2)c(C(=O)OCC)c1-c1ccccc1
2. CCCCCCCC/C=C\CCCCCCCC(=O)NCCN(CC)CC

result:
1: 28.8; 2: 99.3

Below is a list of compounds. For each, state its recorded growth inhibition.
1. CC1OC(OCc2ccc(-c3ccccc3)cc2)CC(N)C1O (stereo unspecified)
2. COC(=O)C1c2ccccc2CC(=O)N1NC(C)=O (stereo unspecified)
3. O=C(NC1CCCCC1)/C(=C\c1ccc(/C=C(/NC(=O)c2ccccc2)C(=O)NC2CCCCC2)cc1)NC(=O)c1ccccc1
4. O=C(NCCCN1CCCCCC1)C(c1ccccc1)C1CCCCC1 (stereo unspecified)
5. O=C(O)CCCc1ccc2c(c1)CC1(C2)Cc2cc3c(cc2C1)CCCC3
6. CCCCCCCCCCOc1ccc(OCCCCCCCCC)cc1

result:
1. 24.6
2. -19.4
3. 9.5
4. 49.4
5. -16.9
6. 12.9

----------
test.description: NCI Yeast Anticancer Drug Screen. Data for the rad50 strain (AID 155);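 also: 0% = growth of vehicle-only cultures of the same strain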
stated.conditions: S. cerevisiae rad50 strain growth inhibition; at 50.0 µM; active compounds read high
This is part of a sample that, as a whole, favours compounds with a hit. Of some 79,000 tested, about 15% had one in any assay.
I'd appreciate it if you could supply growth inhibition values for the items below.
One number for each entry, in %.

Consider the worked cases shown below.
COc1ccccc1/C=C1\CCC(CCN(C)C)(C2=CCCC2)C1=O (stereo not drawn) = -3.05
C1=C(c2ccccc2)c2ccccc2CC1 = -10.3
CC(C)(C)C1=CC(=C2C(=O)C(=O)c3ccccc3C2=O)C=C(C(C)(C)C)C1=O = -3.2
O=C(O)Cc1ccc2c(c1)C(=O)C(=O)N2 = 18.6
Cc1c2cnccc2c(C)c2c1c1ccccc1n2CCCCCCCl = 94.5

Below is a list of molecules. For each, state its recorded growth inhibition.
1. Cc1c2ccnc(C#N)c2c(C)c2c1[nH]c1ccccc12
2. CCc1c(O)c2c([nH]c1=O)SC(C)(C)CC2=NCC(C)C

result:
[-19.8, -23.8]

Below is a list of molecules. For each, state its recorded growth inhibition.
1. CC1=Nc2ccccc2C1(C)C
2. O=C1N2CCCSC2=NC1(c1ccccc1)c1ccccc1
3. CCCC(C)(O)C(C)(C)C (stereo not drawn)
4. CN(CC(=O)O)c1ncc2c(n1)-c1ccccc1OC2c1ccccc1 (stereo not drawn)
5. C/C(=C/c1c(C)c([N+](=O)[O-])c(C)c(C)c1[N+](=O)[O-])C(=O)O
6. CC(C)CCc1ccc(O)cc1

result:
1. 8.25
2. -7.15
3. 6.85
4. 21.9
5. -3.3
6. 5

----------
test.description: NCI Yeast Anticancer Drug Screen. Data for the bub3 strain (AID 167)
stated.conditions: S. cerevisiae bub3 mutant strain, at 50.0 µM, active compounds read high
This is part of a sample that, as a whole, favours compounds with a hit. Of some 79,000 tested, about 15% had one in any assay.
quantity.measured: growth inhibition (%)
Answers are plain numbers, in %.

Consider the worked cases shown below.
COc1cccc(C(N)C(=O)O)c1 (stereo not given) = -12.4
COC(=O)C(=NNc1ccccc1[N+](=O)[O-])C(=O)OC = 19.8
O=[N+]([O-])c1ccc(Sc2c3ccccc3nc3ccccc23)cn1 = -14.8
O=S(=O)(c1cccc(C(F)(F)F)c1)N(CCCCN(S(=O)(=O)c1cccc(C(F)(F)F)c1)S(=O)(=O)c1cccc(C(F)(F)F)c1)S(=O)(=O)c1cccc(C(F)(F)F)c1 = -19.2
COc1c2ccoc2c(S(=O)(=O)Nc2ccc(Cl)cc2)c2oc(C)cc(=O)c12 = -11.8
CN(CC(O)CN1CCCc2ccccc21)C1CCCCC1 (stereo not given) = 46

Below is a list of molecules. For each, state its recorded growth inhibition.
1. O=C1CSC=C(c2ccccc2)O1
2. Cc1ccc(N=NC2=C3Sc4ccccc4N=C2N(c2ccc(Br)cc2)C(=S)N3c2ccc(Cl)cc2)cc1
3. COc1c(C=O)c2c(c(OC)c1OC)-c1ccc(OC)c(=O)cc1[C@@H](NC(C)=O)CC2
4. CC(C)(C)SCCCCO

result:
1. -0.5
2. -3.4
3. 2.9
4. -5.2
